assay.procedure: Photophysical properties (UV–Vis absorption and fluorescence spectra)
Format: physicochemical
recorded.conditions: PBS (3%w/w tween 80)
Where ε molar absorptivity equals or exceeds 30000 M⁻¹ cm⁻¹, the correct label is t; where it does not, the label is f.

Check out these entries, answers already filled in.
[
  {
    "molecule": "CN(C)c1ccc(/C=C/C(=O)c2ccc(N)cc2)cc1 [3f]",
    "assigned.category": "t"
  },
  {
    "molecule": "COc1ccc(C(=O)/C=C/c2ccc(N(C)C)cc2)cc1 [3a]",
    "assigned.category": "t"
  },
  {
    "molecule": "Cc1ccc(C(=O)/C=C/c2ccc(N(C)C)cc2)cc1 [3e]",
    "assigned.category": "f"
  },
  {
    "molecule": "CN(C)c1ccc(/C=C/C(=O)c2ccc(N(C)C)cc2)cc1 [3d]",
    "assigned.category": "t"
  }
]

Task: Quick check, ε molar absorptivity >= 30000 M⁻¹ cm⁻¹? CN(C)c1ccc(/C=C/C(=O)c2cccs2)cc1 [3b]
Output: t

Task: Please tell me: is the molecule CN(C)c1ccc(/C=C/C(=O)c2ccc(O)cc2)cc1 [3c] at or over 30000 M⁻¹ cm⁻¹ in terms of ε molar absorptivity?
Output: f
